Tested on: SF-295 CNS
test description: NCI tumour cell line growth inhibition, 48 h

compound | TGI
CC(=O)OCCCCn1cc(Cn2ccc(=O)n(Cc3cn(CCCCOC(C)=O)nn3)c2=O)nn1 | > 100 µM
O=C(CSc1nnc(-c2ccc(N=Cc3ccc(Cl)cc3)cc2)o1)Nc1ccc([N+](=O)[O-])cc1 | 79.4 µM
COCC12CCC(OC)C34C5CC6(O)C(OC)CC(OC(C)=O)(C5C6OC(=O)c5ccccc5)C(C(OC)C13)C4N(C)C2 (stereo not given) | > 100 µM
CN(C)CCSCCO | > 100 µM
COc1cccc(CCC(=O)c2cc3c(N)c(C(=O)Nc4cccc(Cl)c4C)sc3nc2C)c1 | 20.1 µM
Cc1ccc2nc(-c3ccc(N)c4ccccc34)[nH]c2c1 | 9.53 µM
COc1cc(CCN(C)C)cc(OC)c1OC | > 100 µM
CCOC(=O)C(=CN1CCNC1=S)C(=O)OCC | > 100 µM
c1csc(-c2ccsc2-c2ccsc2)c1 | > 100 µM
COC12C=CC(C=C1C#N)CC2 (stereo not given) (tested in a mixture with another compound) | > 100 µM

----------
Tested on: MCF7 breast
test description: NCI tumour cell line growth inhibition, 48 h

compound | GI50
Nc1nccc2c1ncn2C1OC(CO)C(O)C1O (stereo unspecified) | 52 µM
C=C(CNC(=O)c1ccccc1)c1ccc(C(=O)Nc2ccccc2N)cc1 | 3.2 µM
Cc1ccc(Nc2cc(C)nc(NCCCNc3ccnc4cc(Cl)ccc34)n2)cc1 | 1.16 µM
Cn1cnc2c(F)c(Nc3ccc(Br)cc3F)c(C(=O)NOCCO)cc21 | > 100 µM
O=S(=O)(NC1=NCCN1C(=S)SN1CCn2c1nsc2=S)c1ccccc1Cl | 11.5 µM
N#Cc1nc2c(S(=O)(=O)c3ccccc3)c(N)n(Cc3ccc(Cl)cc3)c2nc1C#N | 7.38 µM

----------
Test system: LOX IMVI melanoma
test description: NCI tumour cell line growth inhibition, 48 h; in the data active means GI50 below about 0.43 µM; inactive means the rest
Possible outcomes: TRUE for active, FALSE for inactive

compound | test system | answer label
COc1ccc2c(c1)c(-c1ccc(-c3cn(C)c4ccc(OC)cc34)[nH]1)cn2C | LOX IMVI melanoma | FALSE
NC(=O)c1ccccc1NC(=O)c1ccccc1Cl | LOX IMVI melanoma | FALSE
CSc1ccc(SC2c3ccc(C)cc3Oc3nc(N)c(C#N)c(N)c32)cc1 (stereo unspecified) | LOX IMVI melanoma | FALSE
N#C/C(=C\c1c(-c2ccccc2)[nH]c2ccccc12)C(=O)c1ccccc1 | LOX IMVI melanoma | FALSE
COc1ccc(Cn2cc3c(c2-c2cc(OC)c(OC)c(OC)c2)CCc2cnoc2-3)cc1N | LOX IMVI melanoma | TRUE
O=c1oc2c3ccc4cnccc4c3[nH]c2c2ccccc12 | LOX IMVI melanoma | FALSE
CC1(C)CC([P+](c2ccccc2)(c2ccccc2)c2ccccc2)=NN1 | LOX IMVI melanoma | FALSE
COc1cccc(CCC(=O)c2cc3c(N)c(C(=O)Nc4cccc(Cl)c4C)sc3nc2C)c1 | LOX IMVI melanoma | FALSE
O=C1c2ccccc2-c2c1c1ccc([N+](=O)[O-])cc1c(=O)n2CCCNCCO | LOX IMVI melanoma | TRUE
CC(C)C[C@H](NC(=O)[C@H](Cc1cccc2ccccc12)NS(=O)(=O)c1cccc2cccnc12)B(O)O | LOX IMVI melanoma | TRUE
Cc1ccc(Nc2cc(C)nc(NCCCNc3ccnc4cc(Cl)ccc34)n2)cc1 | LOX IMVI melanoma | FALSE

----------
Test system: UACC-257 melanoma
test description: NCI tumour cell line growth inhibition, 48 h
Listed next: entries and their corresponding TGI.
measurement type: TGI

compound | measurement type | endpoint result
CCOC(=O)C(=CN1CCNC1=S)C(=O)OCC | TGI | > 100 µM
CN(C)c1ccc(/C=C/C(=O)O)cc1 | TGI | > 100 µM
COC(=O)c1cccc(OC)c1C#Cc1c(OC)cccc1OC | TGI | > 100 µM
Cc1ccc(C2=C(c3ccc(C)cc3)C(c3ccc(C)cc3)=C(c3ccc(C)cc3)C2=O)cc1 | TGI | > 100 µM
CCOc1nccc2c1nc(-c1nonc1N)n2CC | TGI | > 25 µM
COc1cc(F)c(/C=C/c2cc(/C=C/c3cc(OC)c(OC)cc3F)n(-c3cc(F)cc(F)c3)n2)cc1OC | TGI | 3.28 µM
Cc1ccc(C=NC23CC4CC(CC(C4)C2)C3)cc1 | TGI | > 100 µM
CCCCCCCCCCCCCCCCCCOc1ccccc1CC(=O)NCC[N+](C)(C)C | TGI | 51.6 µM
O=[N+]([O-])c1cccc(Cl)c1Oc1ccc(S(=O)(=O)/N=C(\NO)Nc2ccc(Cl)cc2)cc1 | TGI | 26 µM
CC(C)CC12CC3CCC(CNC1=O)C32C (configuration not stated) | TGI | > 100 µM
Nc1nccc2c1ncn2C1OC(CO)C(O)C1O (configuration not stated) | TGI | > 100 µM
CN(C)CCSCCO | TGI | > 100 µM
O=C1C(=O)N(c2nccs2)C(=O)C(=O)C1c1nc2ccccc2s1 | TGI | > 100 µM
Nc1cc(S(N)(=O)=O)ccc1SSc1ccc(S(N)(=O)=O)cc1N | TGI | > 100 µM
O=C(N/N=C(/COc1ccccc1Cl)N=Cc1ccncc1)c1ccncc1 | TGI | > 100 µM
CCN(CC)CCn1c2ccc(OC)cc2c2sc3cc(OC)ccc3c(=O)c21 | TGI | 3.94 µM
COc1cccc(C2SC(C)C(=O)N2CCc2cccs2)c1 (configuration not stated) | TGI | 10.3 µM
COc1cc(OC2OC(COC(=O)c3cc(O)c(O)c(O)c3)C(O)C(O)C2O)ccc1O (configuration not stated) | TGI | > 100 µM
CCCc1nnc2sc(COc3cc(Cl)c(OCc4nn5c(CCC)nnc5s4)cc3Cl)nn12 | TGI | > 100 µM
O=S(=O)(NC1=NCCN1C(=S)SN1CCn2c1nsc2=S)c1ccccc1Cl | TGI | > 100 µM
COc1cc2c(cc1OC)[C@@](C)(C(O)C(O)C(C)(C)O)NCC2 (some centres not stated) | TGI | > 100 µM
N#C/C(=C\c1c(-c2ccccc2)[nH]c2ccccc12)C(=O)c1ccccc1 | TGI | > 100 µM
C=C1C(OC/C=C/COC2O[C@@H]3O[C@@]4(C)CC[C@H]5[C@H](C)CC[C@@H](C2=C)[C@@]35OO4)O[C@@H]2O[C@@]3(C)CC[C@H]4[C@H](C)CC[C@@H]1[C@@]24OO3 (some centres not stated) | TGI | 36 µM
Cc1ccc(Nc2cc(C)nc(NCCCNc3ccnc4cc(Cl)ccc34)n2)cc1 | TGI | 3.22 µM
CC(C)C(=O)[O-].CC(C)C(=O)[O-].N.N.N.N.[Co+3].[O-][Cl+3]([O-])([O-])[O-] | TGI | > 100 µM
CC12ON(P(=O)(c3ccccc3)c3ccccc3)C(C)(c3ccccc31)c1ccccc12 | TGI | > 100 µM
N#Cc1nc2c(S(=O)(=O)c3ccccc3)c(N)n(Cc3ccc(Cl)cc3)c2nc1C#N | TGI | > 50 µM
CN(C)CC1CCC/C(=C\c2ccc(OC(=O)/C=C/c3ccc(Cl)c(Cl)c3)cc2)C1=O (configuration not stated) | TGI | 40.4 µM
COc1ccc2c(c1)CCN1CCCc3ccccc3C21 (configuration not stated) | TGI | > 100 µM
CS(=O)(=O)N(CCC#N)c1ccc(C=O)cc1 | TGI | > 100 µM
O=C(Nc1ccc(Br)cc1)C(=O)C(C(=O)c1ccccc1F)C1OC(=O)c2ccccc21 (configuration not stated) | TGI | > 100 µM
O=C1C2=C(SCCS2)C(=O)c2c(Sc3ccc(Cl)cc3)c(Sc3ccc(Cl)cc3)c(Sc3ccc(Cl)cc3)c(Sc3ccc(Cl)cc3)c21 | TGI | > 100 µM
S=c1sc2cscc2s1 | TGI | 44.7 µM
CSc1ccc(SC2c3ccc(C)cc3Oc3nc(N)c(C#N)c(N)c32)cc1 (configuration not stated) | TGI | 3.24 µM
O=c1cccccc1[O-].O=c1cccccc1[O-].O=c1cccccc1[O-].[Ce+3] | TGI | 96.9 µM
NC(=Nc1ccccc1)c1ccccc1N | TGI | > 100 µM
COC(=O)NC(Cc1ccccc1)NC(C)=O (configuration not stated) | TGI | > 100 µM
Cc1ccc(S(=O)(=O)N/N=C2/CCC(C(C)(C)C)CC2Br)cc1 (configuration not stated) | TGI | > 100 µM
CC(NC(=O)C(=O)N/N=C1\C[C@@H](c2ccccc2)Nc2ccccc21)c1ccccc1 (some centres not stated) | TGI | > 100 µM
COc1cc(CCN(C)C)cc(OC)c1OC | TGI | > 100 µM
O=C(CNc1ccc2c(=S)c3ccccc3[nH]c2c1)Nc1ccccc1-c1ccccc1NC(=O)CNc1ccc2c(=S)c3ccccc3[nH]c2c1 | TGI | 45.3 µM
O=C1/C(=C/c2ccccc2)NC(=S)N1CN1CCCCC1 | TGI | > 100 µM
